Taken from patent EP2914280B1.

Ki reference
target: hSSTR5 (Homo sapiens); construct: expressed in transfected cells; host or cells: CHO-K1 (ATCC), pcDNA3.1, G418-selected clonal line; membranes; assay: Somatostatin receptor radioligand binding assay (hSSTR5); details: CHO-K1 cell membranes; 0.05 nM [125I-Tyr]-[DPhe-cyclo(Cys-Tyr-DTrp-Lys-Val-Cys)-Thr-NH2]; 60 minutes at 25°C; read-out: hSSTR5 Ki (nM) ± SEM
Sequence (P35346 whole entry): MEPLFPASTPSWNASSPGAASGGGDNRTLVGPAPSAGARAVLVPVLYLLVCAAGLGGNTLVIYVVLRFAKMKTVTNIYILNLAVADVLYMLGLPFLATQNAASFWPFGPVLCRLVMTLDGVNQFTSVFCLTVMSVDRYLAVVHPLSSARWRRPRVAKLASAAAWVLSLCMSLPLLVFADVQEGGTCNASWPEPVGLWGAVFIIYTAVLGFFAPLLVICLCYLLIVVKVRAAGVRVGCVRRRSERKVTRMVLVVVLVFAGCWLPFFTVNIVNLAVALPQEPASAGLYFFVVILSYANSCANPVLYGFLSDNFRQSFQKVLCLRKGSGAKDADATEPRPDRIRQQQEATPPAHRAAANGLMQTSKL
Answer with a number only, understood to be in nM.

Consider the reported Ki for these compounds:
compound	Ki / nM
C[C@@H](O)[C@@H]1NC(=O)[C@H](CCCCN)NC(=O)[C@@H](Cc2c[nH]c3ccccc23)NC(=O)[C@H](Cc2ccccc2)NC(=O)[C@H](Cc2ccccc2)NC(=O)[C@H](CCCNC(=N)N)NC(=O)[C@H](NC[C@H](Cc2ccc(O)cc2)NC(=O)CSC[C@@H]2C[C@@H]3c4cccc5[nH]cc(c45)C[C@H]3N(C)C2)CCCCNC(=O)[C@H](Cc2ccccc2)NC1=O [Compound 32]	1.58
C[C@@H](O)[C@@H]1NC(=O)[C@H](CCCCN)NC(=O)[C@@H](Cc2c[nH]c3ccccc23)NC(=O)[C@H](Cc2ccccc2)NC(=O)[C@H](Cc2ccccc2)NC(=O)[C@H](CCCNC(=N)N)NC(=O)[C@H](NCC[S+]([O-])C[C@@H]2C[C@@H]3c4cccc5[nH]cc(c45)C[C@H]3N(C)C2)CCCCNC(=O)[C@H](Cc2ccc(F)cc2)NC1=O (stereo partly shown) [Compound 14]	0.36
C[C@@H](O)[C@@H]1NC(=O)[C@H](CCCCN)NC(=O)[C@@H](Cc2c[nH]c3ccccc23)NC(=O)[C@H](Cc2ccccc2)NC(=O)[C@H](Cc2ccccc2)NC(=O)[C@H](CCCNC(=N)N)NC(=O)[C@H](NC[C@H](Cc2ccc(O)cc2)NC(=O)CSC[C@@H]2C[C@@H]3c4cccc5[nH]cc(c45)C[C@H]3N(C)C2)CCCCNC(=O)[C@H](Cc2ccc(F)cc2)NC1=O [Compound 5]	1.65

Query Ki for C[C@@H](O)[C@@H]1NC(=O)[C@H](CCCCN)NC(=O)[C@@H](Cc2c[nH]c3ccccc23)NC(=O)[C@H](Cc2ccncc2)NC(=O)[C@H](Cc2ccccc2)NC(=O)[C@H](CCCNC(=N)N)NC(=O)[C@H](NCC[S@@+]([O-])C[C@@H]2C[C@@H]3c4cccc5[nH]cc(c45)C[C@H]3N(C)C2)CCCCNC(=O)[C@H](Cc2ccc(O)cc2)NC1=O [Compound 12]
0.74

###

# Ki per entry
target: hSSTR5 (Homo sapiens); construct: expressed in transfected cells; host or cells: CHO-K1 (ATCC), pcDNA3.1, G418-selected clonal line; membranes; test: Somatostatin receptor radioligand binding assay (hSSTR5); details: CHO-K1 cell membranes; 0.05 nM [125I-Tyr]-[DPhe-cyclo(Cys-Tyr-DTrp-Lys-Val-Cys)-Thr-NH2]; 60 minutes at 25°C; read-out: hSSTR5 Ki (nM) ± SEM
Field note: include the unit after the figure.

compound	Ki
C[C@@H](O)[C@@H]1NC(=O)[C@H](CCCCN)NC(=O)[C@@H](Cc2c[nH]c3ccccc23)NC(=O)[C@H](Cc2ccccc2)NC(=O)[C@H](Cc2ccccc2)NC(=O)[C@H](CCCNC(=N)N)NC(=O)[C@H](NC[C@H](Cc2ccc(O)cc2)NC(=O)C[S+]([O-])C[C@@H]2C[C@@H]3c4cccc5[nH]cc(c45)C[C@H]3N(C)C2)CCCCNC(=O)[C@H](Cc2ccc(F)cc2)NC1=O (stereo partly drawn)	0.23 nM
C[C@@H](O)[C@@H]1NC(=O)[C@H](CCCCN)NC(=O)[C@@H](Cc2c[nH]c3ccccc23)NC(=O)[C@H](Cc2ccncc2)NC(=O)[C@H](Cc2ccccc2)NC(=O)[C@H](CCCNC(=N)N)NC(=O)[C@H](NCCS(=O)(=O)C[C@@H]2C[C@@H]3c4cccc5[nH]cc(c45)C[C@H]3N(C)C2)CCCCNC(=O)[C@H](Cc2ccc(O)cc2)NC1=O	0.33 nM

Attention now shifts to the item below.
Using hSSTR5 (Homo sapiens) as the test system, report measured Ki of C[C@@H](O)[C@@H]1NC(=O)[C@H](CCCCN)NC(=O)[C@@H](Cc2c[nH]c3ccccc23)NC(=O)[C@H](Cc2ccncc2)NC(=O)[C@H](Cc2ccccc2)NC(=O)[C@H](CCCNC(=N)N)NC(=O)[C@H](NC[C@H](Cc2ccc(O)cc2)NC(=O)CSC[C@@H]2C[C@@H]3c4cccc5[nH]cc(c45)C[C@H]3N(C)C2)CCCCNC(=O)[C@H](Cc2ccccc2)NC1=O .
0.92 nM
